# EXPERIMENTAL_PROTOCOL: Elevated temperature storage stability in dry form (potency loss or gain by HPLC)
# Assay type: physicochemical
# EXPERIMENTAL_CONTEXT: dry solid, 100 Deg. C., 1 day, dry container; + = potency gain; read-out: PERCENT LOSS (potency)
Counter-ions that a name gives are not always drawn.
Recorded degraded at 24 h, one value per entry.
Response body: numeric value in %, unit text excluded.

CO/N=C(\C(=O)NC1C(=O)N2C(C(=O)[O-])=C(C[N+]3(C)CCCC3)CSC12)c1csc(N)n1 (centres unmarked) [(HCl)2 Salt]	12.4

Lab note: next compound to report on.
Q) Using the record for CO/N=C(\C(=O)NC1C(=O)N2C(C(=O)[O-])=C(C[N+]3(C)CCCC3)CS[C@H]12)c1csc(N)n1 (some centres unmarked) [Zwitterion, reference compound] , report its degraded at 24 h.
A) 100

* * *

# EXPERIMENTAL_PROTOCOL: Elevated temperature storage stability in dry form (potency loss or gain by HPLC)
# Assay type: physicochemical
# EXPERIMENTAL_CONTEXT: dry solid, 2 weeks; 56° C.; read-out: Stability, % Loss
Counter-ions that a name gives are not always drawn.
MEASURED_PARAMETER: degraded at 336 h (%)
The reply should be a number in %, with the unit left off.

Q) State the recorded degraded at 336 h for this entry: CO/N=C(\C(=O)NC1C(=O)N2C(C(=O)[O-])=C(C[N+]3(C)CCCC3)CSC12)c1csc(N)n1 (stereo not shown) [Sesquiphosphate Salt]
A) 1.4

* * *

# EXPERIMENTAL_PROTOCOL: Elevated temperature storage stability in dry form (potency loss or gain by HPLC)
# Type: physicochemical
# EXPERIMENTAL_CONTEXT: dry solid, 1 week; 56° C.; read-out: Stability, % Loss
Counter-ions that a name gives are not always drawn.
MEASURED_PARAMETER: degraded at 168 h (%)
I only need the number, in %, no unit after it.

Q) Please give the measured degraded at 168 h for this compound: CO/N=C(\C(=O)NC1C(=O)N2C(C(=O)[O-])=C(C[N+]3(C)CCCC3)CSC12)c1csc(N)n1 (stereo not shown) [Sesquiphosphate Salt]
A) 1

* * *

# EXPERIMENTAL_PROTOCOL: Elevated temperature storage stability in dry form (potency loss or gain by HPLC)
# Assay type: physicochemical
# EXPERIMENTAL_CONTEXT: dry solid, 4 weeks; 45° C.; read-out: Stability, % Loss
Counter-ions that a name gives are not always drawn.
MEASURED_PARAMETER: degraded at 672 h (%)
Report the value in % with no unit label.

Q) Recorded degraded at 672 h for CO/N=C(\C(=O)NC1C(=O)N2C(C(=O)[O-])=C(C[N+]3(C)CCCC3)CSC12)c1csc(N)n1 (stereo not shown) [Sesquiphosphate Salt] , please?
A) 0.7

* * *

# EXPERIMENTAL_PROTOCOL: Elevated temperature storage stability in dry form (potency loss or gain by HPLC)
# Format: physicochemical
# EXPERIMENTAL_CONTEXT: dry solid, 45 Deg. C., 2 weeks, dry container; + = potency gain; read-out: PERCENT LOSS (potency)
# Protocol: Elevated temperature stabilities were determined by storing the preparations in dry containers at temperatures and for time periods as denoted below and potency losses or gains were determined by HPLC. A % potency gain is indicated by a plus sign in front of a figure. A less than 10% potency loss over a 2 to 4 week period at 45-56 deg. C. is usually indicative of less than 10% potency loss over a 2-3 year period at room temperature.
Counter-ions that a name gives are not always drawn.
Here the recorded degraded at 336 h is given for each entry.
The figure you give is taken to be in %; do not add the unit.

CO/N=C(\C(=O)NC1C(=O)N2C(C(=O)[O-])=C(C[N+]3(C)CCCC3)CS[C@H]12)c1csc(N)n1 (some centres unmarked) [Zwitterion, reference compound]	51

Next molecule, degraded at 336 h to be filled in.
Q) Can you share its degraded at 336 h? I mean this molecule: CO/N=C(\C(=O)NC1C(=O)N2C(C(=O)[O-])=C(C[N+]3(C)CCCC3)CSC12)c1csc(N)n1 (centres unmarked) [(H3 PO4)2 Salt]
A) 3

* * *

# EXPERIMENTAL_PROTOCOL: Elevated temperature storage stability in dry form (potency loss or gain by HPLC)
# Type: physicochemical
# EXPERIMENTAL_CONTEXT: dry solid, 56° C., 3 weeks
# Procedure: Elevated temperature stabilities were determined by storing the preparations in dry containers at temperatures and for time periods as denoted below and potency losses or gains were determined by HPLC. A % potency gain is indicated by a plus sign in front of a figure. A less than 10% potency loss over a 2 to 4 week period at 45-56 deg. C. is usually indicative of less than 10% potency loss over a 2-3 year period at room temperature.
MEASURED_PARAMETER: degraded at 504 h

Q) Value lookup for degraded at 504 h; key = CO/N=C(\C(=O)NC1C(=O)N2C(C(=O)[O-])=C(C[N+]3(C)CCCC3)CSC12)c1csc(N)n1 (stereo not shown) [monohydrate]
A) 0.6%

* * *

# EXPERIMENTAL_PROTOCOL: Elevated temperature storage stability in dry form (potency loss or gain by HPLC)
# Type: physicochemical
# EXPERIMENTAL_CONTEXT: dry solid, 2 weeks; 45° C.; read-out: Stability, % Loss
Where a name gives a salt, the structure may show the parent alone.
MEASURED_PARAMETER: degraded at 336 h
Enter the number, and then the unit.

Q) Reported degraded at 336 h for CO/N=C(\C(=O)NC1C(=O)N2C(C(=O)[O-])=C(C[N+]3(C)CCCC3)CSC12)c1csc(N)n1 (stereo not shown) [Sesquiphosphate Salt] : what is it?
A) 1.4%

* * *

# EXPERIMENTAL_PROTOCOL: Elevated temperature storage stability in dry form (potency loss or gain by HPLC)
# Assay type: physicochemical
# EXPERIMENTAL_CONTEXT: 45 Deg. C., 4 weeks, dry container; + = potency gain; 40320 min
Where a name gives a salt, the structure may show the parent alone.
MEASURED_PARAMETER: PERCENT LOSS (potency) (%)
Report the figure in % without appending any unit label.

CO/N=C(\C(=O)NC1C(=O)N2C(C(=O)[O-])=C(C[N+]3(C)CCCC3)CSC12)c1csc(N)n1 (stereo not shown) [HCl Salt]	6.0
CO/N=C(\C(=O)NC1C(=O)N2C(C(=O)[O-])=C(C[N+]3(C)CCCC3)CSC12)c1csc(N)n1 (stereo not shown) [(HNO3)2 Salt]	0.68

Q) Please look up its PERCENT LOSS (potency): CO/N=C(\C(=O)NC1C(=O)N2C(C(=O)[O-])=C(C[N+]3(C)CCCC3)CSC12)c1csc(N)n1 (stereo not shown) [(HCl)2 Salt]
A) 7.4

Q) Reported PERCENT LOSS (potency), compound CO/N=C(\C(=O)NC1C(=O)N2C(C(=O)[O-])=C(C[N+]3(C)CCCC3)CSC12)c1csc(N)n1 (stereo not shown) [(H3 PO4)2 Salt] : ____
A) 1.0

* * *

# EXPERIMENTAL_PROTOCOL: Elevated temperature storage stability in dry form (potency loss or gain by HPLC)
# Assay type: physicochemical
# EXPERIMENTAL_CONTEXT: dry solid, 45-56 deg. C., one month
Counter-ions that a name gives are not always drawn.
MEASURED_PARAMETER: degraded at 730 h

Q) Item CO/N=C(\C(=O)NC1C(=O)N2C(C(=O)[O-])=C(C[N+]3(C)CCCC3)CS[C@H]12)c1csc(N)n1 (stereo partly shown) [H2 SO4 Salt, sulfate salt] has what recorded degraded at 730 h?
A) < 10%

* * *

# EXPERIMENTAL_PROTOCOL: Elevated temperature storage stability in dry form (potency loss or gain by HPLC)
# Format: physicochemical
# EXPERIMENTAL_CONTEXT: dry solid, 56 Deg. C., 1 week, dry container; + = potency gain; read-out: PERCENT LOSS (potency)
MEASURED_PARAMETER: degraded at 168 h (%)
Quick note: give the figure in %, leave out the unit.

Q) Form field: reported degraded at 168 h of CO/N=C(\C(=O)NC1C(=O)N2C(C(=O)[O-])=C(C[N+]3(C)CCCC3)CS[C@H]12)c1csc(N)n1 (stereo partly shown) [Zwitterion, reference compound]
A) 57

* * *

# EXPERIMENTAL_PROTOCOL: Elevated temperature storage stability in dry form (potency loss or gain by HPLC)
# Type: physicochemical
# EXPERIMENTAL_CONTEXT: dry solid, 7 days; 70° C.; read-out: Stability, % Loss
Structures can show the parent of a compound that is named as a salt.
MEASURED_PARAMETER: degraded at 168 h (%)
Write it as a number; the unit % goes unstated.

Q) degraded at 168 h for CO/N=C(\C(=O)NC1C(=O)N2C(C(=O)[O-])=C(C[N+]3(C)CCCC3)CSC12)c1csc(N)n1 (stereo not shown) [Sesquiphosphate Salt] ?
A) 1.9
